- TARGET DESC: T1, recombinant human VEGF165 (human, UniProt P15692-4 27-191)
- T1 construct: also called rhVEGF165
- T1 sequence (P15692 other isoform, or with tags, fused parts or gaps limits assumed): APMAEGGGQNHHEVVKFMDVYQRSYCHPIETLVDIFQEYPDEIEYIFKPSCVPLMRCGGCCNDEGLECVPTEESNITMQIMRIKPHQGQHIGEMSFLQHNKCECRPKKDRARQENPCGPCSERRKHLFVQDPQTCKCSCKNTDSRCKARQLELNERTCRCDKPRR
- PROTOCOL DETAILS: competition ELISA: VEGF165 binding to coated VEGFR2/Fc
pIC50: −log10 of the molar value. Bridges are numbered along the chain shown (N, C = ends).
Each item that follows carries a reported pIC50.

BINDER | pIC50
Ac-VEPNCDIHVMWVWECFERLMKEL-NH2 (disulfide 5-15 (inferred)) [[VEGF-Peptide] SEQ ID NO:65] | 7.74
Ac-VEPNCDIHVMWVWECFERLYK-NH2 (disulfide 5-15 (inferred)) [[VEGF-Peptide] SEQ ID NO:58] | 7.60
Ac-VEPNCDIHVMWVWVCFERLYGGG-NH2 (disulfide 5-15 (inferred)) [[VEGF-Peptide] SEQ ID NO:43] | 7.18
